This collection of values is drawn from patent US20140348747A1.

Molecular target: T1, NLpoly 5A2 (G15A/G35A/G51A/G67A/G71A)
T1 chain: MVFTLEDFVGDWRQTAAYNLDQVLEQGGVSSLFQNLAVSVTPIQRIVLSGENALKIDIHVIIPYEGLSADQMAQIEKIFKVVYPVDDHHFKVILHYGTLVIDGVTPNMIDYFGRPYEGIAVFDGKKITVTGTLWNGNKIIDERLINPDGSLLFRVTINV
Assay: luminescence complementation, one-site specific binding; replicate 1

# BINDER, Kd [µM]
measured = [
    ("Ac-VSGWRLFKKIS-NH2 [NLpep86]", 0.0991),
]
